assayed-target: human ether-à-go-go-related gene (hERG) potassium channel (human)
Sequence (Q12809 whole entry, looked up): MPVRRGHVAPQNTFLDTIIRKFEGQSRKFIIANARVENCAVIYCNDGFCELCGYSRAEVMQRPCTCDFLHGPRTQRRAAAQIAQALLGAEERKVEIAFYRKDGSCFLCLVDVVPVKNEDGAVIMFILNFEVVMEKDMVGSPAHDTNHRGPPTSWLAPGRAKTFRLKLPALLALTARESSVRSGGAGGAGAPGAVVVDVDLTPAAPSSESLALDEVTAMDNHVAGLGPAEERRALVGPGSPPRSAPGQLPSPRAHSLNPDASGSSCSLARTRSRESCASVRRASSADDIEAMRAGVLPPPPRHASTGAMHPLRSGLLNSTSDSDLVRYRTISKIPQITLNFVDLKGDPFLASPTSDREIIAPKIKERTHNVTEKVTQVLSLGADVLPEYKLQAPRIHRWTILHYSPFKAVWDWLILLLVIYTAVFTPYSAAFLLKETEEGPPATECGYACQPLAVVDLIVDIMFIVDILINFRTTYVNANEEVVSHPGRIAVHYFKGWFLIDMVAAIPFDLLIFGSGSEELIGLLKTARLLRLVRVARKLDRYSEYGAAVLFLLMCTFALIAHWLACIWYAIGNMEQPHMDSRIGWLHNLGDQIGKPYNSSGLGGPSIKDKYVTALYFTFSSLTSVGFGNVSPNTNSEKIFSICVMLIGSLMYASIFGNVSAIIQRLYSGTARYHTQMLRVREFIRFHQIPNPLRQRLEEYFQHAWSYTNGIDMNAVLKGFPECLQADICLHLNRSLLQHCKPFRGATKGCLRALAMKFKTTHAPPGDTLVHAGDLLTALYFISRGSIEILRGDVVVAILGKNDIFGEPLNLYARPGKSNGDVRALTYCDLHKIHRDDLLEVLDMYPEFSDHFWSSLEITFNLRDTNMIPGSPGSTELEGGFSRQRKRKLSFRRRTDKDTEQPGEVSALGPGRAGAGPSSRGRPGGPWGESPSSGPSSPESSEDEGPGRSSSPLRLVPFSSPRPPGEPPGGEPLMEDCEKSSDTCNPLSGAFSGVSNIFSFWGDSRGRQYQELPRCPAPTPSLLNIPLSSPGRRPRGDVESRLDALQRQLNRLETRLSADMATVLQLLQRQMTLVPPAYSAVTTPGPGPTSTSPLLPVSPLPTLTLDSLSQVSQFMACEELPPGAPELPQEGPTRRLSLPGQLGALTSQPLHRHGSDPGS
procedure-details: primary screen, population patch clamp on CHO cells stably expressing hERG; higher = less effect of the substance
Among all 310,000 compounds or so, about 2,200 (0.71%) showed an effect of 50% or more. The effect is printed as a negative number. What follows is part of a selection rich in strong results, with near analogues and random picks from the rest.
observable: hERG current change (%, negative = inhibition) at 1uM
# include the unit after the value

Study these solved cases before continuing.
COc1ccc(C(=O)C2CCCN(Cc3cccn3-c3nccs3)C2)cc1OC (centres unmarked) ... -90.2%
C#CCOCCOCCOCCNc1nc(N2CCOCC2)nc(N2CCN(C(=O)Cn3cc(CCC[NH+]=C(N)N)nn3)CC2)n1.[Cl-] ... 17.5%
CCN1c2ccccc2-c2nc3ccccc3n2C1c1cccs1 (centres unmarked) ... 4.28%
NNC(=O)c1cncn1-c1ccc(F)cc1 ... 12.3%
O=C(CCn1c(=O)[nH]c2ccsc2c1=O)N1CCN(c2cccc(Cl)c2)CC1 ... -6.52%
Cc1cccc(NC(=O)CN2CCN(C(=O)c3cncn3-c3ccc(F)cc3)CC2)c1C ... -22.2%
O=C(CN1CCN(C(=O)c2cncn2-c2ccccc2)CC1)Nc1ccccc1Cl ... -83.4%
COc1cccc(C(=O)N2CCN(C(=O)COc3ccc4ccccc4c3)CC2)c1 ... -3.85%

Write down hERG current change (%, negative = inhibition) at 1uM measured for item O=C(C1CCCN1S(=O)(=O)c1cccc2nsnc12)N1CCN(c2ccc(F)cc2)CC1 (centres unmarked) -54.1%

Write down hERG current change (%, negative = inhibition) at 1uM measured for item Cc1nn(Cc2ccccc2)c(C)c1C(=O)N1CCN(CC(=O)Nc2ccccc2Cl)CC1 -13.4%

Write down hERG current change (%, negative = inhibition) at 1uM measured for item O=C(C1CCN(C2CCN(C/C(Cl)=C/c3ccccc3)CC2)CC1)N1CCOCC1 -33.8%

---

assayed-target: human ether-à-go-go-related gene (hERG) potassium channel (human)
procedure-details: primary screen, population patch clamp on CHO cells stably expressing hERG; higher = less effect of the substance
Screen size: about 310,000 compounds; about 2,200 (0.71%) showed an effect of 50% or more. Effects have a minus sign here. What follows is part of a selection rich in strong results, with near analogues and random picks from the rest.
# hERG current change (%, negative = inhibition) at 1uM annotations
Return type: number; implicit unit %.

Study these solved cases before continuing.
O=C(OCC(=O)N1CCCCC1)c1cccc(NS(=O)(=O)c2ccccc2)c1 ... 12.4
CCOCCCn1c(=N)c(C(N)=S)cc2c(=O)n3cccc(C)c3nc21 ... -85.5
O=C(NN1C(=O)c2ccccc2NC1c1ccco1)c1ccccc1 (stereo not drawn) ... 4.38
CCCCn1c(N)c(N(CCC(C)C)C(=O)c2ccc(C)c(S(=O)(=O)N3CCOCC3)c2)c(=O)[nH]c1=O ... 5.89
COc1ccc(-c2nc(=S)[nH][nH]2)cc1OC ... 10.4
C/C(=N\NC(=O)CN1CCN(S(=O)(=O)c2ccc(C)cc2)CC1)c1ccncc1 ... -77.6

Under human ether-à-go-go-related gene (hERG) potassium channel (human), report hERG current change (%, negative = inhibition) at 1uM for Cc1scc(-c2n[nH]c(=S)n2C(C)c2ccccc2)c1C (stereo not drawn) 8.59

Under human ether-à-go-go-related gene (hERG) potassium channel (human), report hERG current change (%, negative = inhibition) at 1uM for Cc1nc2ccccc2n1CCc1nc2c3ccccc3nc(SCC#N)n2n1 -0.451

Under human ether-à-go-go-related gene (hERG) potassium channel (human), report hERG current change (%, negative = inhibition) at 1uM for CCOCCCn1c(=N)c(C(=O)NCCN2CCOCC2)cc2c(=O)n3cccc(C)c3nc21 -17

Under human ether-à-go-go-related gene (hERG) potassium channel (human), report hERG current change (%, negative = inhibition) at 1uM for Cc1cccn2c(=O)c3cc(C#N)c(=O)n(CCCN4CCOCC4)c3nc12 -21.2

Under human ether-à-go-go-related gene (hERG) potassium channel (human), report hERG current change (%, negative = inhibition) at 1uM for CCCCN(C(=O)c1ccc(C)c(S(=O)(=O)N2CCOCC2)c1)c1c(N)n(CCCC)c(=O)[nH]c1=O 5.43

Under human ether-à-go-go-related gene (hERG) potassium channel (human), report hERG current change (%, negative = inhibition) at 1uM for CCCn1c(=N)c(C#N)cc2c(=O)n3cccc(C)c3nc21 -20.2

Under human ether-à-go-go-related gene (hERG) potassium channel (human), report hERG current change (%, negative = inhibition) at 1uM for Cc1ccc(C)c(CN2C(=O)CSc3ccc(C(=O)NCC(C)CN4CCC(C)CC4)cc32)c1 (stereo not drawn) -70.4

Under human ether-à-go-go-related gene (hERG) potassium channel (human), report hERG current change (%, negative = inhibition) at 1uM for CC(=O)NC(NC(C)=O)c1ccc(Br)cc1 -1.9

Under human ether-à-go-go-related gene (hERG) potassium channel (human), report hERG current change (%, negative = inhibition) at 1uM for CCOCCCn1c(=NC(C)=O)c(C#N)cc2c(=O)n3cccc(C)c3nc21 -7.46

Under human ether-à-go-go-related gene (hERG) potassium channel (human), report hERG current change (%, negative = inhibition) at 1uM for C/C(=N\NC(=O)c1ccc(CN2CCOCC2)cc1)c1ccc([N+](=O)[O-])cc1 10

Under human ether-à-go-go-related gene (hERG) potassium channel (human), report hERG current change (%, negative = inhibition) at 1uM for O=C(CCN1CCOCC1)NCC(=O)Nc1ccc(Br)cc1C(=O)c1ccccc1 -17.6

Under human ether-à-go-go-related gene (hERG) potassium channel (human), report hERG current change (%, negative = inhibition) at 1uM for CCCCNC(=O)CCCn1c(=S)[nH]c2cc3c(cc2c1=O)OCO3 19.2

Under human ether-à-go-go-related gene (hERG) potassium channel (human), report hERG current change (%, negative = inhibition) at 1uM for CS(=O)(=O)Nc1ccc(C(=O)Nc2ccccc2C(=O)NCc2ccco2)cc1 -58

Under human ether-à-go-go-related gene (hERG) potassium channel (human), report hERG current change (%, negative = inhibition) at 1uM for C/C(=N/NC(=O)CN1CCN(Cc2ccccc2)CC1)c1ccc([N+](=O)[O-])cc1 -72.9

---

assayed-target: human ether-à-go-go-related gene (hERG) potassium channel (human)
procedure-details: primary screen, population patch clamp on CHO cells stably expressing hERG; higher = less effect of the substance
The whole screen tested about 310,000 compounds, of which about 2,200 (0.71%) showed an effect of 50% or more. The effect is printed as a negative number. This excerpt belongs to a sample that is enriched for strong results.
observable: hERG current change (%, negative = inhibition) at 1uM (%)
Return type: number; implicit unit %.

Study these solved cases before continuing.
CCC(=O)c1ccc(OCC(O)CNCc2ccc(F)cc2)cc1 (stereo not shown) ... -12.8
CC(=O)c1cccc(OCC(O)CNCCc2ccc(Cl)cc2)c1 (stereo not shown) ... 10.6
COc1ccc(C(OCC(O)CNCCc2ccc(S(N)(=O)=O)cc2)c2ccc(OC)cc2)cc1 (stereo not shown) ... -1.33

Write down hERG current change (%, negative = inhibition) at 1uM measured for item CC(C)(C)NC(=O)CSCc1ccc(Br)cc1 1.24

Write down hERG current change (%, negative = inhibition) at 1uM measured for item CCCN(CCC)C(=O)Nc1cc(Cl)ccc1OC 14.4

Write down hERG current change (%, negative = inhibition) at 1uM measured for item Cc1cc(C)c2c(N)c(C(=O)NNC(=O)c3ccccc3)sc2n1 12.8

Write down hERG current change (%, negative = inhibition) at 1uM measured for item OC(CNCCc1ccc(Cl)cc1)COc1cc(Cl)ccc1Cl (stereo not shown) 2.52

Write down hERG current change (%, negative = inhibition) at 1uM measured for item O=c1[nH]nc(Cc2ccc(-c3cccc(Cl)c3)o2)c2ccccc12 6.53

Write down hERG current change (%, negative = inhibition) at 1uM measured for item COc1ccc(CNCc2c(F)cccc2F)cc1OC.O=C(O)C(=O)O 14.6

Write down hERG current change (%, negative = inhibition) at 1uM measured for item COc1ccc(CCNCC(O)COc2cccc(Br)c2)cc1OC (stereo not shown) -39.5

---

assayed-target: human ether-à-go-go-related gene (hERG) potassium channel (human)
procedure-details: primary screen, population patch clamp on CHO cells stably expressing hERG; higher = less effect of the substance
Out of some 310,000 compounds screened, about 2,200 (0.71%) showed an effect of 50% or more. Effects have a minus sign here. Many of the other results were omitted from the sample, so strong results are more common in it than they were.
# hERG current change (%, negative = inhibition) at 1uM annotations

Study these solved cases before continuing.
COC(=O)c1ccc(CN2CCC(Oc3ccc(C(=O)N4CCCCC4)cc3)CC2)cc1 ... -11.3%
CCCn1c2ccccc2c2cnn(CC(=O)NC3CCCCC3)c(=O)c21 ... 10.5%
Cc1[nH]nc(NCCO)c1[N+](=O)[O-] ... -3.88%
O=C(Nc1ccccc1)C1=C[C@H](c2ccccc2)C[C@H](OCCCCO)O1 ... 12.7%
CCN(CC(=O)Nc1c(F)cccc1F)C(=O)/C=C/c1ccc2c(c1)OCO2 ... 3.1%

Write down hERG current change (%, negative = inhibition) at 1uM measured for item CCN1CCN(c2nc(Nc3cccc(C)c3)nc(N)c2[N+](=O)[O-])CC1 -36.9%

Write down hERG current change (%, negative = inhibition) at 1uM measured for item O=C(c1ccc(OC2CCN(CCCc3ccccc3)CC2)cc1)N1CCCC1 -55.2%

Write down hERG current change (%, negative = inhibition) at 1uM measured for item Cc1ccc(NC(=O)c2cc(N3C(=O)CCC3=O)ccc2N2CCOCC2)cc1 5.52%

Write down hERG current change (%, negative = inhibition) at 1uM measured for item CCOc1ccc(NC(=O)CN(C)C(=O)c2c(C)noc2C)cc1OCC 9.87%

Write down hERG current change (%, negative = inhibition) at 1uM measured for item Cc1ccc(C)c(-n2c(-c3cccnc3)n[nH]c2=S)c1 18.2%
